- Tested on: GRK2
- Construct: gene ADRBK1
- Condition description: concentration: 1 μM,replicates: in singlicate; n = 1;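 further: KINOMEscan kinase panel screen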
Listed below: %Inh values for each entry.

The following molecules have reported results that may help.
Cl.Nc1n[nH]c2cc(-c3ccccn3)ccc12 = 0%
Cn1ccc2ncnc(Oc3ccc(NC(=O)Nc4cncc(C(F)(F)F)c4)c(Cl)c3)c21 = 0%
CN(c1cccc(CNc2nc(Nc3ccc4c(c3)CC(=O)N4)ncc2C(F)(F)F)c1)S(C)(=O)=O = 0%
CCn1c(-c2nonc2N)nc2cncc(Br)c21 = 12%

// field: %Inh; key: "C[C@@H]1CCN(C(=O)N2CCCC2)C[C@@H]1N(C)c1ncnc2[nH]ccc12" ; value = 25%

----------
- Tested on: TSSK3
- Condition description: concentration: 1 μM,replicates: in singlicate; n = 1
Param label: returns satisfied when %Inh < 3%, returns not satisfied otherwise, including exact equality.

Here's what some known entries look like.
O=C(NCC1CC1)c1ccc(-c2cc(C(=O)NC3CC3)ccc2F)cc1 = satisfied
Cc1cccc(-c2nc(Nc3ccncc3)c3sccc3n2)n1 = not satisfied
Cl.Cl.NC[C@H](CC1CCCCC1)NC(=O)c1ccc(-c2ccnc3[nH]ccc23)s1 = not satisfied
O=C(Nc1n[nH]c2cc(-c3ccco3)ccc12)C1CC1 = satisfied
Cc1n[nH]c2cc(Nc3ccnc(Nc4cccc(CN5CCOCC5)c4)n3)ccc12 = not satisfied

Exam item: Is it true that %Inh reported for "CCN1CCN(CCCC(=O)Nc2n[nH]c3nc(-c4ccc(O)cc4)c(Br)cc23)CC1" is less than 3%?
Marked response: satisfied

Exam item: Problem: For the compound "COC(=O)c1cccc(NC(=O)NC2CCN(c3ccnc(NCc4ccc(F)cc4)n3)CC2)c1" , is %Inh under 3%?
Marked response: not satisfied

Exam item: Below 3% on %Inh? Entry "CS(=O)(=O)Nc1ccc(-c2ccnc3[nH]ccc23)cc1"
Marked response: not satisfied

----------
Recorded measurements of %Inh, one per entry
- Test system: PRKCH
- Condition description: concentration: 1 μM,replicates: in singlicate; n = 1

Some solved cases for reference:
Nc1nccc(-c2ccc3c(N)n[nH]c3c2)n1 = 11%
CS(=O)c1ccc(-c2coc3ccc(-c4n[nH]c(=O)o4)cc23)cc1 (stereo not drawn) = 0%

Data point: "O=C(NCC1CC1)c1ccc(-c2cc(C(=O)NC3CC3)ccc2F)cc1" ; %Inh = 0%

%Inh in this record for "COc1cc2ncn(-c3cc(OCC4CCCCC4)c(C(N)=O)s3)c2cc1OC" : 30%

Reported %Inh of "C[C@@H](Oc1cc(-n2cnc3ccc(-c4ccncc4)cc32)sc1C(N)=O)c1ccccc1Cl" : 33%

Lab note: "COc1cc2nccc(Nc3ccc(Oc4ccccc4)cc3)c2cc1OC.Cl" gave %Inh of 1%

Value of measured %Inh for the entry "CCCC(=O)Nc1n[nH]c2ncccc12" : 0%

The compound listed as "CC(=O)c1c(-c2ccncc2)[nH]c(-c2ccncc2)c1C" shows %Inh equal to 13%

The reported %Inh of the compound "Cc1ccn2nc(-c3ccc(F)cc3)c(-c3ccncc3)c2c1.Cl" was 8%

----------
- System: RSK1(Kin.Dom.2-C-terminal)
- Construct: gene RPS6KA1
- Condition description: concentration: 1 μM,replicates: in singlicate; n = 1
Decision: %Inh >= 7% yields MET, all other cases yield NOT MET.

Illustrative cases are given below, each with its answer.
Cl.Cl.NC[C@H](CC1CCCCC1)NC(=O)c1ccc(-c2ccnc3[nH]ccc23)s1 = MET
CC(=O)c1c(-c2ccncc2)[nH]c(-c2ccncc2)c1C = NOT MET
CN(c1ccccc1CNc1nc(Nc2ccc3c(c2)CC(=O)N3)ncc1C(F)(F)F)S(C)(=O)=O = NOT MET
Cc1ccn2nc(-c3ccc(F)cc3)c(-c3ccncc3)c2c1.Cl = MET
FC(F)(F)c1cc(Br)cc(Nc2nccc(-c3cnn4ncccc34)n2)c1 = NOT MET

Exam item: Tell me whether %Inh is at least 7% here: "Cn1ccc2ncnc(Oc3ccc(NC(=O)Nc4cccc(C(F)(F)F)c4)c(F)c3)c21"
Marked response: NOT MET

Exam item: Is it the case that "CS(=O)(=O)Nc1ccc(-c2ccnc3[nH]ccc23)cc1" has %Inh reaching or exceeding 7%?
Marked response: MET
